Biological target: recombinant ICL (isocitrate lyase) from C. albicans ATCC10231 (Candida albicans, UniProt Q9P8Q7)
Construct: made in house
Sequence (Q9P8Q7 whole entry): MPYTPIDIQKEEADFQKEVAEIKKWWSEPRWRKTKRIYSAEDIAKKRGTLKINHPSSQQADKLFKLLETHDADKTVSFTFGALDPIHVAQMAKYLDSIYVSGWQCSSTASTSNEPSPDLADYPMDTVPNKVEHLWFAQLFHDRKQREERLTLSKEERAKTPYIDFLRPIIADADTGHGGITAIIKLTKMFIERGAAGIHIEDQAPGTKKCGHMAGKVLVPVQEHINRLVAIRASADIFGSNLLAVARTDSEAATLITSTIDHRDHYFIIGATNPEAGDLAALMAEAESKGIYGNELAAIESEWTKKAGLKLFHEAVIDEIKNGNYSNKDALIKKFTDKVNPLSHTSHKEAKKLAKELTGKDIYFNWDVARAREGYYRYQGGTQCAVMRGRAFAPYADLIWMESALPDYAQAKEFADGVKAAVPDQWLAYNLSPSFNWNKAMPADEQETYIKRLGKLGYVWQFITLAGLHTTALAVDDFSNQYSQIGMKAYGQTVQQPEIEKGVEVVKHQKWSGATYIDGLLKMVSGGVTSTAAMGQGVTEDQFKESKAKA
Assay: biochemical
Details: 37 °C, 30 min, pH 7.0, n = 3; read-out: ICL IC50
Result type: pIC50
Worth noting: pIC50 values are minus log10 of concentrations stated in mol/L.

Sure, the documented pIC50 for O=C(O)CC[N+](=O)[O-] [3-Nitropropionate, reference compound] is 4.80

---

Target: recombinant ICL (isocitrate lyase) from C. albicans ATCC10231 (Candida albicans, UniProt Q9P8Q7)
Experiment: biochemical
Result type: Ki
Put down the number, then write its unit next to it.

Sure, the documented Ki for CC(C)C1NC(=O)C(Cc2ccccc2)NC1=O (stereo not shown) is 64.9 µM
